- Tested on: S. aureus RN4220
- protocolDetails: growth inhibition call (relative growth <= 0.2)
- experimentalParameters: 50 µM
The campaign covered roughly 39,000 compounds. About 500 (1.3%) were called active. The full list was thinned out, with actives kept by preference.
Respond only with the outcome that fits, drawn from yes (active), no (inactive)

CC1CN(c2c(F)c(F)c3c(=O)c(C(=O)O)cn(C4CC4)c3c2F)CC(C)N1 (centres undefined); yes
C[C@H](CO)N1C[C@H](C)[C@H](CN(C)C(=O)Nc2ccc3c(c2)OCO3)Oc2ncc(C#CC(C)(C)O)cc2C1=O; no
N[C@@H]1CN(c2c(F)cc3c(=O)c(C(=O)O)cn([C@@H]4C[C@@H]4F)c3c2Cl)CC12CC2; no

Data request: Status in this test for Cl.NC1CCN(c2c(F)cc3c(=O)c(C(=O)O)cn(C4CC4)c3c2Cl)C1 (centres undefined) ?
Data returned: yes
